biological target: HLA B*3501 (Homo sapiens, UniProt P01889, A329T/A93T/A95T/C349S/D201E/D98Y/E176V/E187L/E204Q/E69T/I218V/K202T/L119I/Q94N/R155S/R180L/S121R/S35A/S48A/T118I/V127L/V306I/V36M/Y140S/Y91F); format: binding
Binarize Normalized average relative binding affinity(ARB) at 0.2; below is true, at or above is false.

Sequence Chain	Assigned Category
XXXLXXXXX [3064.0070]	true
XXXXXTXXX [3064.0117]	true
XXXXLXXXX [3064.0090]	false
XXXEXXXXX [3064.0064]	true
XXXXXXSXX [3064.0136]	false
XXXXXXAXX [3064.0121]	false
XXXXXFXXX [3064.0105]	false
XXXXXXXLX [3064.0150]	false
XXXXTXXXX [3064.0097]	false
XXXXXWXXX [3064.0119]	false
XXXWXXXXX [3064.0079]	false
XXXXXGXXX [3064.0106]	false
XXXXXXXYX [3064.0160]	true
XXXXXXDXX [3064.0123]	true
XXXRXXXXX [3064.0075]	true
XXXXXXLXX [3064.0130]	false
XXXKXXXXX [3064.0069]	true
XXXXXXXHX [3064.0147]	true
XXXXXXQXX [3064.0134]	false
XXXGXXXXX [3064.0066]	true
XXXXXCXXX [3064.0102]	true
XXXXFXXXX [3064.0085]	false
XXXXGXXXX [3064.0086]	false
XXXXXXEXX [3064.0124]	false
